# tgt: Human σ1 receptor (Homo sapiens, UniProt Q99720)
# Sequence (Q99720 whole entry): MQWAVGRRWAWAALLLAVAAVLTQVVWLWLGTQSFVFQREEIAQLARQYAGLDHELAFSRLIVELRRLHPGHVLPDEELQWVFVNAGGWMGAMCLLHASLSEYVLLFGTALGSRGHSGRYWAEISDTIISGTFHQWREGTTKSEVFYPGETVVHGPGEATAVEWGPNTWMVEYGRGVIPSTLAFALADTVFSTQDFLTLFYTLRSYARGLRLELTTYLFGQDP
pKi: −log10 of the molar value.
Measured pKi values are reported for all entries that follow.

Some compounds with known pKi results, for comparison:
compound: CCC[C@H](c1nc2ccc(F)c(F)c2c(=O)n1CC)N1CCN[C@@H](C)CC1
tgt: Human σ1 receptor (Homo sapiens, UniProt Q99720)
pKi: > 6.30
//
compound: CCCC(c1nc2ccc(F)cc2c(=O)n1CC(C)C)N1CCCN(CC)CC1 (stereo not drawn)
tgt: Human σ1 receptor (Homo sapiens, UniProt Q99720)
pKi: > 6.30
//
compound: CCC[C@@H](c1nc2ccc(Br)cc2c(=O)n1CC)N1CCCN(CC)CC1
tgt: Human σ1 receptor (Homo sapiens, UniProt Q99720)
pKi: > 6.30
//
compound: CCC[C@@H](c1nc2ncc(F)cc2c(=O)n1CC1CC1)N1CCN[C@H](C)CC1
tgt: Human σ1 receptor (Homo sapiens, UniProt Q99720)
pKi: < 6.00
//
compound: CCC[C@@H](c1nc2ccc(F)cc2c(=O)n1CC)N1CCCN[C@@H](C)C1
tgt: Human σ1 receptor (Homo sapiens, UniProt Q99720)
pKi: < 6.00
//
compound: CCC[C@H](c1nc2ccc(F)cc2c(=O)n1CC(C)C)N1CCCN(C)CC1
tgt: Human σ1 receptor (Homo sapiens, UniProt Q99720)
pKi: > 6.30

We next turn to a different compound, shown below.
Reported pKi for Human σ1 receptor (Homo sapiens, UniProt Q99720), given CCC[C@@H](c1nc2cc(F)c(Cl)cc2c(=O)n1CC)N1CCN(C)C[C@@H](C)C1 ? 6.00 to 6.30

====

# tgt: Human α2δ-1 subunit of Cav2.2 calcium channel (Homo sapiens)
# Sequence (P54289 25-1103): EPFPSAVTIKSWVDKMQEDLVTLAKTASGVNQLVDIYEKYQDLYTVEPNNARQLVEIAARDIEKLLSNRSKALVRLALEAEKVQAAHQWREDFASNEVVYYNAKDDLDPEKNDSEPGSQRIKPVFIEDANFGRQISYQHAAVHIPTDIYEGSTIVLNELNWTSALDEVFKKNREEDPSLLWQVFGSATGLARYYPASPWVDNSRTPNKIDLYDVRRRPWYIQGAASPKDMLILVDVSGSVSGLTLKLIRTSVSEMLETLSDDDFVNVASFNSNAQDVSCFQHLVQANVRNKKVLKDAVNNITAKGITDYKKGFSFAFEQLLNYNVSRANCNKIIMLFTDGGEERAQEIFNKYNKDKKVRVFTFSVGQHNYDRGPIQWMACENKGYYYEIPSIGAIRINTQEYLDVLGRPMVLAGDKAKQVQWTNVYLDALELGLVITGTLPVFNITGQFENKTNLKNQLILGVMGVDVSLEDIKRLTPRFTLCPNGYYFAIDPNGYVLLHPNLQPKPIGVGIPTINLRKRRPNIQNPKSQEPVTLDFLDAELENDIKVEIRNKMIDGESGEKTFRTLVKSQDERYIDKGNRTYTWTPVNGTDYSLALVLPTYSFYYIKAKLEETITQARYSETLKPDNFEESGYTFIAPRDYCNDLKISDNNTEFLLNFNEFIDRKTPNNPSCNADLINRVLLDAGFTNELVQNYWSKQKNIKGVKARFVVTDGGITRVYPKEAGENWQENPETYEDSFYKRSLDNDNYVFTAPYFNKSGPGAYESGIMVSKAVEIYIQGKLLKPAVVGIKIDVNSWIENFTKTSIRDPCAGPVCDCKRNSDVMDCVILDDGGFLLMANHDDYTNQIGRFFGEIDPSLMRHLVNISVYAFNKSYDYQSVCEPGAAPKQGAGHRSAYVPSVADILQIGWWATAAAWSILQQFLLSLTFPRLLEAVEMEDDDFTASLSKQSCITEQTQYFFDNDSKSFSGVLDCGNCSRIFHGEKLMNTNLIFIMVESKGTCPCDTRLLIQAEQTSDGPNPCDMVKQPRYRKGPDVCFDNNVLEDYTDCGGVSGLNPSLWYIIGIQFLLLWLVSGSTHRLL
# protocol text: Human α2δ-1 subunit of Cav2.2 calcium channel assay ([3H]-gabapentin binding)
# condition parameters: binding to the α2δ-1 subunit of voltage-gated calcium channels, expressed as Ki class; + also covers inhibition between 1% and 50%
Measured Ki values are reported for all entries that follow.

Some compounds with known Ki results, for comparison:
compound: CCC[C@@H](c1nc2ccc(Cl)cc2c(=O)n1C)N1CCCN[C@H](C)C1
value reported: > 5000 nM
//
compound: CCCC(c1nc2ccc(Br)cc2c(=O)n1CC(C)C)N1CCCN(CC)CC1 (centres unmarked)
value reported: < 500 nM
//
compound: CCCC(c1nc2ccc(I)cc2c(=O)n1CC)N1CCCN(C)CC1 (centres unmarked)
value reported: < 500 nM

Returns the measured Ki for the input compound. Input: CCC[C@H](c1nc2ccc(Cl)cc2c(=O)n1C)N1CCN[C@@H](C)CC1 500 to 5000 nM

Returns the measured Ki for the input compound. Input: CCC[C@@H](c1nc2cc(F)c(Br)cc2c(=O)n1CC)N1CCNC[C@@H](C)C1 500 to 5000 nM

Returns the measured Ki for the input compound. Input: CCC[C@@H](c1nc2cc(F)c(Cl)cc2c(=O)n1CC)N1CCNC[C@H](C)C1 > 5000 nM

Returns the measured Ki for the input compound. Input: CCC[C@H](c1nc2ccc(F)cc2c(=O)n1Cc1ccoc1)N1CCCN(C)CC1 < 500 nM

Returns the measured Ki for the input compound. Input: CCC[C@@H](c1nc2ccncc2c(=O)n1CC)N1CCN(C)C[C@@H](C)C1 > 5000 nM

The reported measurements were obtained from patent US12479830B2.
